Biological target: human growth hormone secretagogue receptor (hGHS-R1a) (Homo sapiens, UniProt Q92847)
Construct: purchased PerkinElmer BioSignal #RBHGHSM; host or cells: HEK-293, stably transfected
Sequence (Q92847 whole entry): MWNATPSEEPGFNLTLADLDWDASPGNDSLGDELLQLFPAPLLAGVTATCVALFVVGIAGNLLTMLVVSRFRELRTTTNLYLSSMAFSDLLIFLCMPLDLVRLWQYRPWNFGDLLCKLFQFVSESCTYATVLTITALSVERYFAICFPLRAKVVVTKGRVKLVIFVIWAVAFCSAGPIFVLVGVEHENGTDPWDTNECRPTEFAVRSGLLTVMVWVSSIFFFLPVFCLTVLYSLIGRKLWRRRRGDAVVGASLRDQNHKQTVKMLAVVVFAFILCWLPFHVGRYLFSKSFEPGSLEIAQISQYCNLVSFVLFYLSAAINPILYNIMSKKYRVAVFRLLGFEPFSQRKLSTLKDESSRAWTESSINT
Assay: Competitive radioligand binding assay (ghrelin receptor), [125I]-ghrelin displacement on GHS-R/HEK 293 membranes
Details: Table 3B; binding activity at the human ghrelin receptor; read-out: Ki
readout-kind: Ki

Could you tell me which Ki is on file for CC1CNC(C2CC2)C(=O)N(C)C(C)C(=O)NC(Cc2ccc(F)cc2)C(=O)NCCCc2ccccc2O1 (stereo not shown) ?
10 to 100 nM

One more molecule: C[C@@H]1C(=O)N[C@H](Cc2ccc(Cl)c(Cl)c2)C(=O)NCCCc2ccccc2OCCN[C@@H](C2CC2)C(=O)N1C
0.1 to 10 nM

Cool, now CO[C@H](C)[C@@H]1NCCOc2ccccc2CCCNC(=O)[C@@H](Cc2ccc(F)cc2)NC(=O)[C@@H](C)N(C)C1=O
10 to 100 nM

Try this molecule next: COc1ccc(C[C@H]2NC(=O)[C@@H](C)N(C)C(=O)[C@H](C3CC3)NCCOc3ccccc3CCCNC2=O)cc1OC
100 to 1000 nM

Similarly, C[C@@H]1C(=O)N[C@H](Cc2ccccc2F)C(=O)NCCCc2ccccc2OCCN[C@@H](C2CC2)C(=O)N1C ?
0.1 to 10 nM

Now the molecule C[C@@H]1C(=O)N[C@H](Cc2ccc(F)c(F)c2)C(=O)NCCCc2ccccc2OCCN[C@@H](C2CC2)C(=O)N1C
10 to 100 nM

// next record O=C1NC2(CCCC2)C(=O)N[C@@H](Cc2cccc(Cl)c2)C(=O)NC/C=C/c2ccccc2OCCN[C@H]1Cc1ccsc1
10 to 100 nM

Then this molecule: C[C@@H]1C(=O)N[C@H](Cc2ccc(C#N)cc2)C(=O)NCCCc2ccccc2OCCN[C@@H](C2CC2)C(=O)N1C
10 to 100 nM

Would you kindly repeat that for C[C@@H]1C(=O)N[C@H](Cc2ccc(Cl)cc2)C(=O)NCCCc2ccccc2OCCN[C@@H](C2CC2)C(=O)N1C ?
0.1 to 10 nM

Could you do the same for C[C@@H]1C(=O)N[C@H](Cc2ccc(F)cc2)C(=O)NCC#Cc2ccccc2OCCN[C@@H](C2CC2)C(=O)N1C , please?
10 to 100 nM

Now the molecule CC1C(=O)NC(Cc2ccc(F)cc2)C(=O)NCCCc2ccccc2O[C@H](C)CNC(C2CC2)C(=O)N1C (stereo partly shown)
10 to 100 nM

Same again, this time with C[C@@H]1C(=O)N[C@H](Cc2ccc(Br)cc2)C(=O)NCCCc2ccccc2OCCN[C@@H](C2CC2)C(=O)N1C
0.1 to 10 nM

// query: CC[C@H](C)[C@@H]1NCCCNCCNC(=O)[C@H](Cc2cccc(Cl)c2)NC(=O)C2(CCCC2)NC1=O
100 to 1000 nM

* * *

Biological target: human growth hormone secretagogue receptor (hGHS-R1a) (Homo sapiens)
Construct: purchased PerkinElmer BioSignal #RBHGHSM; host or cells: HEK-293, stably transfected
Assay: Competitive radioligand binding assay (ghrelin receptor), [125I]-ghrelin displacement on GHS-R/HEK 293 membranes
Details: Ki (nM), Table 4; TFA salts unless otherwise noted
readout-kind: Ki

Which measured Ki value corresponds to CCC(C)[C@@H]1NCCOc2ccccc2CCCNC(=O)[C@@H](Cc2ccc(Cl)cc2)NC(=O)[C@@H](C)N(C)C1=O (stereo partly shown) [compound 25] ?
0.1 to 10 nM
